Molecular target: T1, endothelial protein C receptor (EPCR), extracellular domain, biotinylated on the N-terminal BAP tag (human, UniProt Q9UNN8 18-210, biotin attached to the N-terminal BAP tag (BirA))
T1 construct: also called biotinylated recombinant EPCR; ECPR
T1 sequence: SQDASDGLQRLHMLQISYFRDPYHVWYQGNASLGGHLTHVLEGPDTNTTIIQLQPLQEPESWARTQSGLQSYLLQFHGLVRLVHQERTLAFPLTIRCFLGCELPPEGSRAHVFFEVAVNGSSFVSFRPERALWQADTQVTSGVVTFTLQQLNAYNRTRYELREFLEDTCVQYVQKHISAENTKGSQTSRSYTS
Assay: SPR
Conditions: both partners purified
For each of the binders below, state its koff.
Note to self: number, then unit, no commentary.

[[record]]
binder = "CIDRα1.5a domain 1965-2 (patient isolate 1965) (domain or fragment) PDCGVECKNGRCKKKTDADGNCGKTQIYDIPKDVTPTDINVLYSGDEYGDIAKRLSEFCRDSKKENGKNTEIWHCYYIGDKHNQCKMEKAVAENKHQTKITTFDFFFDLWIKNLLRDTINWKSQLKNCINNTNKTNCNKTCNENCKCFENWVNQKEKEWNNMKELFKNKNRTSQNYYNKLKSHFDNYFFLVINNVNKGEAKWKKFTDELRNKIDSSKAKNGTSDSQDSIKMLLEHLKEDGTTCTANNPDSICNTPGTDARSLEPASKIEPQNKDTRTNPC"
endpoint = "koff"
result = "0.00103 s⁻¹"


Please turn your attention to the following entry.
Can you look up the measured koff of CIDRα1.4 domain of PfEMP1 DD2var32 (domain or fragment, also called CIDRa1.4 DD2var32_DD2; DD2var32 (1.4)) PDCGVECNKGTCKKKPNDSNCRNNEAYIPPRDVTPTKINVLYSGDGHGDITKKLKGFCSNPTDYDGKNYENWQCYYKSSEDNKCQMTSLSQTLQKHHYVMSFYAFFDFWVRKFLIDTIKWENELKNCINNTTTDCSDGCNKHCVCFDKWVKQKEKEWNSIKKLFTKKNNVPQPYYTNINNLFDSFYFQVMYELNHDEAKWKELTQELRNKINSSKKNTDAADSKDAIELLLEYLKEKSTICKDNNTNEAC for me? 0.000343 s⁻¹
